Data origin, for the record: ChEMBL document CHEMBL4196168

# targetSystem: Transthyretin (Homo sapiens)
# experiment: Binding affinity to transthyretin (unknown origin) assessed as free energy changes by ITC method
Measured deltaG by item
Unit kcal/mol implied. Number only.

Guide cases for deltaG, answers given:
Cc1n[nH]c(C)c1CCCOc1cc(C(=O)O)ccc1I :: -9.61
CCc1n[nH]c(CC)c1CCCOc1cc(C(=O)O)ccc1F :: -8.1
Cc1nn(C)c(C)c1CCCOc1cc(C(=O)O)ccc1F :: -9

Next compound, deltaG to be filled in.
Determine its reported deltaG: COC(=O)c1ccc(F)c(OCCCc2c(C)n[nH]c2C)c1 -8.99

---

# experiment: Cmax in human at 80 mg qd
# Assay type: ADME, organism-based
# Design: dose 80 mg
# runParameters: in vivo
testReadout: Cmax (µM)
Unit µM implied. Number only.

Determine its reported Cmax: O=C(O)c1ccc2nc(-c3cc(Cl)cc(Cl)c3)oc2c1 20

---

# targetSystem: Albumin (Homo sapiens, UniProt P02768)
# Sequence (P02768 whole entry): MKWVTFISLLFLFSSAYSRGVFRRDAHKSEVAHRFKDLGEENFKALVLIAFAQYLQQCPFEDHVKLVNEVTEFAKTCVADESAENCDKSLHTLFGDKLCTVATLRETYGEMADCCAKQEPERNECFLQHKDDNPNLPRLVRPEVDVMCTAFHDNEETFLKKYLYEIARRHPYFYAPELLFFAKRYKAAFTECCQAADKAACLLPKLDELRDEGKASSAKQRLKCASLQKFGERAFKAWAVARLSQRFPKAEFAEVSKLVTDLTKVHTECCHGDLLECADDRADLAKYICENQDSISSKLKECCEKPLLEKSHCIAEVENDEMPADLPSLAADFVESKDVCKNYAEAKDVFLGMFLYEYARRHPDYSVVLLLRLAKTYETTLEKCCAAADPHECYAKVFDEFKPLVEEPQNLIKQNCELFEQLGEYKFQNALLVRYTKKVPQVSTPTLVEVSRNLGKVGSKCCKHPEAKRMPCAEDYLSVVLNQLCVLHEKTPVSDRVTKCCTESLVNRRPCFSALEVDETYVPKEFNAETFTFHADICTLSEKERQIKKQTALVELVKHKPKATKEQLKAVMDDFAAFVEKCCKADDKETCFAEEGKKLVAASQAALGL
# experiment: Binding affinity to human serum albumin
# Assay type: ADME
testReadout: Kd

Report value: Kd, system: Albumin (Homo sapiens, UniProt P02768), compound: O=C(O)c1ccc2nc(-c3cc(Cl)cc(Cl)c3)oc2c1 2500 nM

---

# experiment: Cmax in human at 250 mg bid
# Assay type: ADME, organism-based
# Design: dose 250 mg
# runParameters: in vivo
testReadout: Cmax (µM)
Unit µM implied. Number only.

Determine its reported Cmax: O=C(O)c1cc(-c2ccc(F)cc2F)ccc1O 200
